# TARGET_OR_TEST_SYSTEM: leptin receptor (ObR) naturally expressed on MCF-7, LN229 and LN18 cells (human)
# EXPERIMENTAL_DETAILS: cell-based or functional assay
Where no end group is shown, it is not given here. [ ]: non-standard residue; d: D form. aThr = C[C@H](O)[C@H](N)C(=O)O; Nva = CCC[C@H](N)C(=O)O; Ahx = NCCCCCC(=O)O
Reported IC100, proliferation of ObR-positive cancer cells in the presence of leptin (6 nM) is given for each of the following binders.
State the answer as a number, implicitly in nM.

{"BINDER": "E[Nva]VALSR[Ahx]-NH2 (N-terminus assumed; SMILES CCC[C@H](NC(=O)[C@@H](N)CCC(=O)O)C(=O)N[C@H](C(=O)N[C@@H](C)C(=O)N[C@@H](CC(C)C)C(=O)N[C@@H](CO)C(=O)N[C@@H](CCCNC(=N)N)C(=O)NCCCCCC(N)=O)C(C)C) [peptide of amino acid sequence Glu-Nva-Val-Ala-Leu-Ser-Arg-AcpNH2 [SEQ ID NO:51]]", "QUANTITATIVE_READOUT": 100}
{"BINDER": "TE[Nva]VALSR[Ahx]-NH2 (N-terminus assumed; SMILES CCC[C@H](NC(=O)[C@H](CCC(=O)O)NC(=O)[C@@H](N)[C@@H](C)O)C(=O)N[C@H](C(=O)N[C@@H](C)C(=O)N[C@@H](CC(C)C)C(=O)N[C@@H](CO)C(=O)N[C@@H](CCCNC(=N)N)C(=O)NCCCCCC(N)=O)C(C)C) [peptide of amino acid sequence Thr-Glu-Nva-Val-Ala-Leu-Ser-Arg-AcpNH2 [SEQ ID NO:4]]", "QUANTITATIVE_READOUT": 50}

Please look at the following binder next.
-- ask Which IC100, proliferation of ObR-positive cancer cells in the presence of leptin (6 nM) is reported for this binder? [aThr]E[Nva]VALSR[Ahx]-NH2 (N-terminus assumed; SMILES CCC[C@H](NC(=O)[C@H](CCC(=O)O)NC(=O)[C@@H](N)[C@H](C)O)C(=O)N[C@H](C(=O)N[C@@H](C)C(=O)N[C@@H](CC(C)C)C(=O)N[C@@H](CO)C(=O)N[C@@H](CCCNC(=N)N)C(=O)NCCCCCC(N)=O)C(C)C) [peptide of amino acid sequence alloThr-Glu-Nva-Val-Ala-Leu-Ser-Arg-AcpNH2 [SEQ ID NO:49]]
-- reply 5
